I'd appreciate it if you could supply viability, T/C values for the items below.
- Tested on: 873145-292-R-J1-PDC complex spheroid viability;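 note: luminescence signal used as surrogate for viable cell content; spheroids exposed to compounds for 7 days before viability readout; 100% = DMSO vehicle control viability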
- assay.protocol: Anticancer human tumor 873145-292-R-J1-PDC patient-derived renal clear cell carcinoma cell line growth inhibition [POLQ]
- assay.conditions: second compound 3.16 µM; first compound 3.16 µM; stronger effect = lower value
Give bare numbers, in %.

Please look at the items below and tell me viability, T/C for each one, in order.
1. C=CC(=O)N1CCN(c2nc(=O)n(-c3c(C)ccnc3C(C)C)c3nc(-c4c(O)cccc4F)c(F)cc23)C(C)C1 (stereo not given) + Nc1ccc(C#CCN(C(=O)Cc2ncc(C(F)(F)F)cc2C(F)(F)F)c2ccc(F)cc2)nn1
2. COc1ccc([C@@H](O)c2cc(-c3ncnc4cc(N5CCOCC5)ccc34)c(F)cc2Cl)nn1 + Nc1ccc(C#CCN(C(=O)Cc2ncc(C(F)(F)F)cc2C(F)(F)F)c2ccc(F)cc2)nn1

1: 135; 2: 51

Fill in viability, T/C for each of the 3 compounds listed.
1. CC1COCCN1c1cc(C2(O)CC3CCC(C2)O3)c2cnn(-c3ccn[nH]3)c2n1 (stereo not given) + Cc1cccc(N(C)C(=O)C2C(O)CCN2c2nc(C)cc(C(F)(F)F)c2C#N)c1
2. CNCc1ccc(-c2[nH]c3cc(F)cc4c3c2CCNC4=O)cc1 + COC1C(OC(N)=O)C(O)C(Oc2ccc3c(O)c(NC(=O)c4ccc(O)c(CC=C(C)C)c4)c(=O)oc3c2C)OC1(C)C
3. O=C(c1cc(Cc2n[nH]c(=O)c3ccccc23)ccc1F)N1CCN(C(=O)C2CC2)CC1 + Nc1ccc(C#CCN(C(=O)Cc2ncc(C(F)(F)F)cc2C(F)(F)F)c2ccc(F)cc2)nn1

[36.6, 98.1, 96.2]
